- System: 885512-296-R-J2-PDC complex spheroid growth, % test/control
- TEST_SUMMARY: Anticancer human tumor 885512-296-R-J2-PDC patient-derived breast carcinoma cell line growth inhibition [AhR]; active means viability on the fitted dose curve at most 10% of control; inactive means the rest
- CONDITION_INFO: second compound 10 µM; first compound 0.1 µM
Outcome (select one): 1.0 (active), 0.0 (inactive)

Some entries whose results are on file:
1) COc1cc(C2c3cc4c(cc3C(OC3OC5COC(C)OC5C(O)C3O)C3COC(=O)C23)OCO4)cc(OC)c1O (stereo unspecified) + Cc1cncc(-c2nc(NCCc3c[nH]c4ccccc34)c3ncn(C(C)C)c3n2)c1 | 0.0
2) CC1COCCN1c1cc(-c2ccnn2C)c2ccnc(-c3ccn[nH]3)c2n1 (stereo unspecified) + Cc1ccccc1N=Nc1ccc(NC(=O)c2ccnn2C)c(C)c1 | 1.0
3) COc1ccc([C@@H](O)c2cc(-c3ncnc4cc(N5CCOCC5)ccc34)c(F)cc2Cl)nn1 + Cc1ccccc1N=Nc1ccc(NC(=O)c2ccnn2C)c(C)c1 | 0.0

// return assay outcome for Nc1ncn(C2CC(O)C(CO)O2)c(=O)n1 (stereo unspecified) + Cc1ccccc1N=Nc1ccc(NC(=O)c2ccnn2C)c(C)c1
0.0

Can you handle CC1COCCN1c1cc(-c2ccnn2C)c2ccnc(-c3ccn[nH]3)c2n1 (stereo unspecified) + Cc1cncc(-c2nc(NCCc3c[nH]c4ccccc34)c3ncn(C(C)C)c3n2)c1 next?
1.0

Also need CC1(C)CCC(CN2CCN(c3ccc(C(=O)NS(=O)(=O)c4ccc(NCC5CCOCC5)c([N+](=O)[O-])c4)c(Oc4cnc5[nH]ccc5c4)c3)CC2)=C(c2ccc(Cl)cc2)C1 + Cc1ccccc1N=Nc1ccc(NC(=O)c2ccnn2C)c(C)c1 , thanks.
0.0

====

- System: 885512-296-R-J2-PDC complex spheroid growth, % test/control
- TEST_SUMMARY: Anticancer human tumor 885512-296-R-J2-PDC cell line growth inhibition [AhR]; active means viability on the fitted dose curve at most 10% of control; inactive means the rest;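 further: spheroids exposed to compounds for seven days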
- CONDITION_INFO: second compound 1 µM; first compound 10 µM
Thanks in advance; please answer with one of these: yes (1) for active, no (0) for inactive

These solved cases illustrate the format of a correct answer.
1. COc1cc(C2c3cc4c(cc3C(OC3OC5COC(C)OC5C(O)C3O)C3COC(=O)C23)OCO4)cc(OC)c1O (configuration not stated) + Cc1ccccc1N=Nc1ccc(NC(=O)c2ccnn2C)c(C)c1 | yes (1)
2. O=C(C=Cc1cccc(S(=O)(=O)Nc2ccccc2)c1)NO + Cc1cncc(-c2nc(NCCc3c[nH]c4ccccc34)c3ncn(C(C)C)c3n2)c1 | no (0)
3. Nc1ccccc1NC(=O)c1ccc(CNC(=O)OCc2cccnc2)cc1 + CC(CO)NC(=O)c1cc(-c2ccc(Cl)cc2)nn(-c2cnn(C)c2)c1=O | no (0)
4. COc1ccc([C@@H](O)c2cc(-c3ncnc4cc(N5CCOCC5)ccc34)c(F)cc2Cl)nn1 + Cc1cncc(-c2nc(NCCc3c[nH]c4ccccc34)c3ncn(C(C)C)c3n2)c1 | no (0)
5. COc1cccc2c1C(=O)c1c(O)c3c(c(O)c1C2=O)CC(O)(C(=O)CO)CC3OC1CC(N)C(O)C(C)O1 (configuration not stated) + Cc1cncc(-c2nc(NCCc3c[nH]c4ccccc34)c3ncn(C(C)C)c3n2)c1 | yes (1)
6. Nc1ccccc1NC(=O)c1ccc(CNC(=O)OCc2cccnc2)cc1 + Cc1cncc(-c2nc(NCCc3c[nH]c4ccccc34)c3ncn(C(C)C)c3n2)c1 | no (0)

Record request — test call for NS(=O)(=O)OCC1CC(n2ccc3c(NC4CCc5ccccc54)ncnc32)CC1O (configuration not stated) + Cc1cncc(-c2nc(NCCc3c[nH]c4ccccc34)c3ncn(C(C)C)c3n2)c1
yes (1)

====

- System: 885512-296-R-J2-PDC complex spheroid growth, % test/control
- TEST_SUMMARY: Anticancer human tumor 885512-296-R-J2-PDC cell line growth inhibition [AhR];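 further: spheroids exposed to compounds for seven days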
- CONDITION_INFO: second compound 10 µM; first compound 0.0316 µM; stronger effect = lower value
READOUT: viability, T/C (%)
One number for each entry, in %.

Some compounds with known viability, T/C results, for comparison:
1. CC1COCCN1c1cc(-c2ccnn2C)c2ccnc(-c3ccn[nH]3)c2n1 (stereo unspecified) + Cc1cncc(-c2nc(NCCc3c[nH]c4ccccc34)c3ncn(C(C)C)c3n2)c1 | 9.95
2. CC(C)c1c(-c2ccccc2)nc2c(C#N)c[nH]n2c1=O + CC(CO)NC(=O)c1cc(-c2ccc(Cl)cc2)nn(-c2cnn(C)c2)c1=O | 109
3. NS(=O)(=O)OCC1CC(n2ccc3c(NC4CCc5ccccc54)ncnc32)CC1O (stereo unspecified) + CC(CO)NC(=O)c1cc(-c2ccc(Cl)cc2)nn(-c2cnn(C)c2)c1=O | 65.6

Here are 3 compounds. What values of viability, T/C were reported for them?
1. Nc1ccccc1NC(=O)c1ccc(CNC(=O)OCc2cccnc2)cc1 + Cc1cncc(-c2nc(NCCc3c[nH]c4ccccc34)c3ncn(C(C)C)c3n2)c1
2. CC(C)c1c(-c2ccccc2)nc2c(C#N)c[nH]n2c1=O + Cc1cncc(-c2nc(NCCc3c[nH]c4ccccc34)c3ncn(C(C)C)c3n2)c1
3. O=C(c1cc(Cc2n[nH]c(=O)c3ccccc23)ccc1F)N1CCN(C(=O)C2CC2)CC1 + Cc1ccccc1N=Nc1ccc(NC(=O)c2ccnn2C)c(C)c1

1. 21.3
2. 17
3. 67.1

====

- Test system: 885512-296-R-J2-PDC complex spheroid growth, % test/control
- TEST_SUMMARY: Anticancer human tumor 885512-296-R-J2-PDC cell line growth inhibition [AhR];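 further: spheroids exposed to compounds for seven days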
- CONDITION_INFO: curve of first compound; second compound 1 µM
- Source text: Multicellular complex tumor spheroid response to aryl hydrocarbon receptor antagonists in combination with a variety of drugs and investigational agents in selected tumor cell lines […] Compounds. […] If the clinical Cmax for an agent had not been determined, the highest concentration tested was 10 microM (Table 1). […]
READOUT: IC50

Previously resolved entries follow.
1. Cn1ncnc1C1c2n[nH]c(=O)c3cc(F)cc(c23)NC1c1ccc(F)cc1 (centres undefined) + Cc1ccccc1N=Nc1ccc(NC(=O)c2ccnn2C)c(C)c1 | > 100 nM
2. COc1cc(Nc2ncc3c(n2)-c2ccc(Cl)cc2C(c2c(F)cccc2OC)=NC3)ccc1C(=O)O + Cc1cncc(-c2nc(NCCc3c[nH]c4ccccc34)c3ncn(C(C)C)c3n2)c1 | < 31.6 nM
3. Nc1ccn(C2OC(CO)C(O)C2(F)F)c(=O)n1 (centres undefined) + Cc1cncc(-c2nc(NCCc3c[nH]c4ccccc34)c3ncn(C(C)C)c3n2)c1 | < 31.6 nM
4. CC(C)c1c(-c2ccccc2)nc2c(C#N)c[nH]n2c1=O + CC(CO)NC(=O)c1cc(-c2ccc(Cl)cc2)nn(-c2cnn(C)c2)c1=O | > 10000 nM
5. CCN(c1cc(-c2ccc(CN3CCOCC3)cc2)cc(C(=O)NCc2c(C)cc(C)[nH]c2=O)c1C)C1CCOCC1 + CC(CO)NC(=O)c1cc(-c2ccc(Cl)cc2)nn(-c2cnn(C)c2)c1=O | > 3000 nM
6. Nc1ncn(C2CC(O)C(CO)S2)c(=O)n1 (centres undefined) + CC(CO)NC(=O)c1cc(-c2ccc(Cl)cc2)nn(-c2cnn(C)c2)c1=O | > 300 nM
7. COc1ccc([C@@H](O)c2cc(-c3ncnc4cc(N5CCOCC5)ccc34)c(F)cc2Cl)nn1 + CC(CO)NC(=O)c1cc(-c2ccc(Cl)cc2)nn(-c2cnn(C)c2)c1=O | > 10000 nM
8. Nc1ccn(C2OC(CO)C(O)C2(F)F)c(=O)n1 (centres undefined) + Cc1ccccc1N=Nc1ccc(NC(=O)c2ccnn2C)c(C)c1 | < 31.6 nM

Need IC50, item Nc1ccn(C2OC(CO)C(O)C2(F)F)c(=O)n1 (centres undefined) + CC(CO)NC(=O)c1cc(-c2ccc(Cl)cc2)nn(-c2cnn(C)c2)c1=O
< 31.6 nM

====

- Tested on: 885512-296-R-J2-PDC complex spheroid growth, % test/control
- TEST_SUMMARY: Anticancer human tumor 885512-296-R-J2-PDC cell line growth inhibition [AhR];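 further: spheroids exposed to compounds for seven days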
- CONDITION_INFO: second compound 1 µM; first compound 0.316 µM; stronger effect = lower value
Provide the recorded viability, T/C for the entries that follow.
Numbers only, in %.

Below, 4 compounds whose answers are already recorded.
1. COc1cccc2c1C(=O)c1c(O)c3c(c(O)c1C2=O)CC(O)(C(=O)CO)CC3OC1CC(N)C(O)C(C)O1 (stereo not given) + Cc1cncc(-c2nc(NCCc3c[nH]c4ccccc34)c3ncn(C(C)C)c3n2)c1 | 5.13
2. COc1ccc([C@@H](O)c2cc(-c3ncnc4cc(N5CCOCC5)ccc34)c(F)cc2Cl)nn1 + CC(CO)NC(=O)c1cc(-c2ccc(Cl)cc2)nn(-c2cnn(C)c2)c1=O | 95.6
3. Nc1ncn(C2CC(O)C(CO)O2)c(=O)n1 (stereo not given) + Cc1cncc(-c2nc(NCCc3c[nH]c4ccccc34)c3ncn(C(C)C)c3n2)c1 | 76
4. COc1ccc([C@@H](O)c2cc(-c3ncnc4cc(N5CCOCC5)ccc34)c(F)cc2Cl)nn1 + Cc1ccccc1N=Nc1ccc(NC(=O)c2ccnn2C)c(C)c1 | 100

# evaluate next
What does the data say about its viability, T/C? Entry: O=C(C=Cc1cccc(S(=O)(=O)Nc2ccccc2)c1)NO + Cc1ccccc1N=Nc1ccc(NC(=O)c2ccnn2C)c(C)c1
68.9
